src = ChEMBL document CHEMBL1140199

tested on: Escherichia coli; experiment: Antimicrobial activity against Escherichia coli ATCC 11229; format: functional; also: test concentration or dose not given here
Rule: inhibition zone (IZ) of 9 mm or more gives 1; anything lower gives -1.

# count of solved cases: 3
[
  {
    "compound": "C=CC1CC(=O)c2cc(Cl)ccc2O1 (configuration not stated)",
    "assay target": "Escherichia coli",
    "group": 1
  },
  {
    "compound": "C=C(C)C1CC(=O)c2ccccc2O1 (configuration not stated)",
    "assay target": "Escherichia coli",
    "group": 1
  },
  {
    "compound": "C/C=C/C1CC(=O)c2cc(Cl)ccc2O1 (configuration not stated)",
    "assay target": "Escherichia coli",
    "group": 1
  }
]

inhibition zone (IZ) >= 9 mm for C=C(C)C1CC(=O)c2cc(Br)ccc2O1 (configuration not stated) ?
-1

Decide: inhibition zone (IZ) of CC1(C)S[C@@H]2[C@H](NC(=O)[C@H](N)c3ccccc3)C(=O)N2[C@H]1C(=O)O [AMPICILLIN] >= 9 mm?
1
